- tgt: human recombinant mGluR5 (Homo sapiens, UniProt P41594)
- Construct: tetracycline removed 3-7 days before the assay
- Sequence (P41594 21-1212): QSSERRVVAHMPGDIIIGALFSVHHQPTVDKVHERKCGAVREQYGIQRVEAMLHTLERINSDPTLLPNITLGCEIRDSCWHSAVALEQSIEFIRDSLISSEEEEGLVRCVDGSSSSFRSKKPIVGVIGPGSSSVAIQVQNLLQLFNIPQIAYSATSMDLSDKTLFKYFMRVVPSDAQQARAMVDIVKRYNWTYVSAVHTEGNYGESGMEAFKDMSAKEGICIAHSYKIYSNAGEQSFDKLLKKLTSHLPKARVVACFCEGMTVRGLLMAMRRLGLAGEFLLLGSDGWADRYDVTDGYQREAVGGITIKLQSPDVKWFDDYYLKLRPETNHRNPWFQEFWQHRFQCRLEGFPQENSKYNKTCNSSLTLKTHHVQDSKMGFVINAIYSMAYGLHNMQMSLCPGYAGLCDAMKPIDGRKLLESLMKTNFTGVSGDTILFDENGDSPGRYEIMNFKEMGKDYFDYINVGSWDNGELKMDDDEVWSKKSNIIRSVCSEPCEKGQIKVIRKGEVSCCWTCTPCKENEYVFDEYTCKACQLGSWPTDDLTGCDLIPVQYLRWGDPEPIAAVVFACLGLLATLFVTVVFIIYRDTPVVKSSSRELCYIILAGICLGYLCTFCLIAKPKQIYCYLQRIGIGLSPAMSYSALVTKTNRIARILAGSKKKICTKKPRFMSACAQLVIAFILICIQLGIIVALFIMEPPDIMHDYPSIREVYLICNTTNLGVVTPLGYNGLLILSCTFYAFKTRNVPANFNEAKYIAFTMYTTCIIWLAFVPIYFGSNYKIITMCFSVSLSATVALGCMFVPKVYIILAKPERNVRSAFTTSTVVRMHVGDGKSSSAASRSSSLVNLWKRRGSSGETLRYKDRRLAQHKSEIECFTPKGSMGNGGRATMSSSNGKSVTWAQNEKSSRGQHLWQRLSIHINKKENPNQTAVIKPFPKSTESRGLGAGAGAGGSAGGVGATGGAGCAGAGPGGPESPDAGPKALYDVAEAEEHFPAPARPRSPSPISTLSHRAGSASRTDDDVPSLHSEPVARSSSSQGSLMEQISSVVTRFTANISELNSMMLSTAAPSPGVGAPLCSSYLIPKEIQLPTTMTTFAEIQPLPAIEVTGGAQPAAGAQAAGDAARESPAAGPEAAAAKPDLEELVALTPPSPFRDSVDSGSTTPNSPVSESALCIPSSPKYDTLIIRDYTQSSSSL
- assayDetails: positive modulation of mGluR5, calcium based FLIPR assay in HEK 293 cells
- setupConditions: HEK 293 cell line expressing human recombinant mGluR5; EC50 of the modulation of the glutamate response (glutamate approx. 5% basal stimulation); peak height of Ca release fluorescence signal
Measured log10 EC50, listed per entry.
All values: base-10 log of EC50 in nM.

| compound | tgt | quantityKind | resultNumber |
| --- | --- | --- | --- |
| COc1ccc(-c2nc(-c3ccc(OC)cc3)n(CC(=O)N3CCN(c4cccc(OC)n4)CC3)n2)cc1 | human recombinant mGluR5 (Homo sapiens, UniProt P41594) | log10 EC50 | 2.83 |

// log10 EC50 lookup, key: CN(c1cc(N2CCN(C(=O)Cn3nc(-c4ccc(F)cc4)nc3-c3ccc(F)cc3)CC2)ncn1)C1CC1
2.66

Name the reported log10 EC50 value associated with the compound Cc1cc(-c2nc(-c3ccccc3)n(CC(=O)N3CCN(c4ncc(Cl)cn4)CC3)n2)ccc1F
1.40

Data request, read-out log10 EC50, for Cc1ccnc(N2CCN(C(=O)Cn3nc(-c4ccc(F)c(C)c4)nc3C3CCC(C)CC3)CC2)c1 (centres unmarked)
2.93

What does the record list as log10 EC50 for CCN(CC)c1cc(N2CCN(C(=O)Cn3nc(-c4ccc(F)cc4)nc3-c3ccc(F)cc3)CC2)ncn1 ?
2.31

Consider the compound shown here: O=C(Cn1nc(-c2ccc(F)cc2)nc1-c1ccccc1)N1CCN(c2ncccn2)CC1 What is its recorded log10 EC50?
1.52

log10 EC50 lookup needed for O=C(Cn1nc(-c2ccc(F)cc2)nc1-c1ccc(F)cc1)N1CCN(c2ccncn2)CC1 , thanks.
2.41

Please give the measured log10 EC50 for this compound: COc1ccc(-c2nc(C3CCCCC3)n(CC(=O)N3CCN(c4ncccn4)CC3)n2)c(F)c1
2.59

Which log10 EC50 is listed for Cc1ccnc(N2CCN(C(=O)Cn3nc(-c4ccc(F)c(C)c4)nc3C(C)C)CC2)c1 ?
3.06
